B1: INTS4 (parent)
chain: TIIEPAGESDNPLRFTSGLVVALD

Variants of: B1
Protocol notes: protein stability index of a GFP-peptide fusion (GPS, HEK-293T) (PSI 1-6); higher = more stable;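 note: lentivirally expressed fusions sorted by FACS into six bins by GFP to DsRed ratio, PSI derived from sequencing read proportions per bin multiplied by bin number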
Assay context: c terminus: a fixed tail appended
Please use the following protein stability index ranges when assigning a class: low group: < 2; middle group: ≥ 2 and < 3; high group: ≥ 3

Study these solved cases before continuing.
TIAEPAGESDNPLRFTSGLVVALD [I3A] : high group
TISEPAGESDNPLRFTSGLVVALD [I3S] : high group
TIIEPAGMSDNPLRFTSGLVVALD [E8M] : middle group
TIIEPAGESDNPLRFTSGLVIALD [V21I] : middle group
TIIEPAGESDNPQRFTSGLVVALD [L13Q] : high group
TIIEPCGESDNPLRFTSGLVVALD [A6C] : middle group

Input: Category of TIIEPAGESDHPLRFTSGLVVALD [N11H] , please.
Output: middle group

Input: Category of TIIEPAGESLNPLRFTSGLVVALD [D10L] , please.
Output: low group

Input: Category of TIISPAGESDNPLRFTSGLVVALD [E4S] , please.
Output: middle group

Input: Category of TIIEPWGESDNPLRFTSGLVVALD [A6W] , please.
Output: low group

Input: Category of TIIEPAGESDNPLRFTSLLVVALD [G18L] , please.
Output: low group

Data provenance: the supplement of paper PMC10567573
